# RUN DESCRIPTION: amyloid nucleation score (Sup35N fusion, yeast selection) (log enrichment); library NNK3; higher = more nucleation; inactive = no reads after selection;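 further: zero at mode of non-aggregating sequences after 7 days selection at 30°C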
READOUT NAME: amyloid nucleation score

Would you kindly share the measured amyloid nucleation score for "MLWLNNGGLYWIALIFEMSS" ?
inactive

Reported amyloid nucleation score for "RARALLAHLKVPSKPVFTAV" : what is it?
inactive

Request the reported amyloid nucleation score associated with "CVTFFVISTHPHSCSLSN"
2.42

Can you share its amyloid nucleation score? I mean this substance: "IRIKVRLHVSIYFNIFR"
inactive

Which amyloid nucleation score reading was recorded for the substance "RDPFITFWYMRIYTTGRGCV" ?
inactive

Quick batch: amyloid nucleation score for everything below.
1. DVFSNMSWYYCNVIWNAYDM
2. TGIWSGYYKLFLSVLRGRRV
3. YCGNLYRDFLGQQPF
4. GLEFRARRKCRTKGELHDK
5. FWGVSDGFMC

0.196
inactive
inactive
inactive
-0.141

Look at each substance and report its amyloid nucleation score.
1. HRSNCDYDIQYVYIFFS
2. AHWSEYDAKFTKRLV
3. MSYMMSSTPSVFMACLGDS
4. AKMNYKLWRDVA
5. SSVSFVITGPVAFVWNQGLV
6. LTMSRMMYLDKMLYFLYVQW
7. EYTLPRPCRLLIFSDQYSNA
8. GMFRDHAYADCRGLTY

1. 2.36
2. inactive
3. inactive
4. inactive
5. 2.56
6. inactive
7. inactive
8. inactive

Hi there! I need amyloid nucleation score for each item below, if you can.
1. MDPESVWED
2. RSFHYRIACESNLAVEVHFR
3. LARVFASTGSSCSRSMNAMN

1: inactive; 2: 1.74; 3: inactive

* * *

Answer each item with its documented amyloid nucleation score.
# RUN DESCRIPTION: amyloid nucleation score (Sup35N fusion, yeast selection) (log enrichment); library NNK2; higher = more nucleation; inactive = no reads after selection
Give bare numbers.

What does the record list as amyloid nucleation score for "SLFARRMWGGTVKWYNDRTY" ?
-0.632

Entry under review: "TLLIMCGSISHSFPSECHWL" . Reported amyloid nucleation score?
0.716

Query: amyloid nucleation score; subject: "RRTSYLCWFAGYFGLI"
-0.295

Give me amyloid nucleation score for each of these substances, listed below.
1. YFPVIRRDAAFYPFSAPYFN
2. INIMARIWLQSVWLSVGRKS
3. YGIHTFSRYGVIWSCVSV

1. -2.05
2. 0.097
3. -0.64

I'm hoping you can list amyloid nucleation score for every substance here, please.
1. QGLGTRLRDRLTVYCRFTAF
2. MTLMKDCDMNISHSARAKAS
3. MIWGVT
4. TGLWDVCQVLIRFRNVFWRN
5. LVLNKNCLKVI
6. TVFWGTMVGPQRGVVGLESF
7. DSFIVYVR
8. TVYPCMYGGLGHRERHLSMS

[-0.69, 0.255, 1.01, 3.06, -0.426, 0.593, -0.072, 5.06]

* * *

# RUN DESCRIPTION: amyloid nucleation score (Sup35N fusion, yeast selection) (log enrichment); library NNK2; higher = more nucleation; inactive = no reads after selection
READOUT NAME: amyloid nucleation score

Fill in the blank: the reported amyloid nucleation score of "VFLACNDCLCVWLSVEVTSE" is ____.
inactive

amyloid nucleation score for "FTNCEYNVDISCVSGLSYSI" ?
inactive

Need amyloid nucleation score of "LLLPLFII" , thanks.
inactive
